Taken from ChEMBL document CHEMBL3351523.

For each of the molecules below, state its EC50.
test system: Bovine viral diarrhea virus 1; assay: Antiviral activity against Bovine viral diarrhea virus infected in MDBK cells assessed as inhibition of virus-induced cytopathogenicity after 3 to 4 days by MTT assay; type: functional, organism-based; settings: Bovine viral diarrhea virus isolates and strains

# lookup: EC50 of FC(F)(F)c1ccc2c(c1)nc(CC1CCCC1)n2C[C@@H]1CCCN2CCCC[C@H]12
> 100 µM

# lookup: EC50 of Clc1ccc2[nH]c(CCCC3NCC4CNCC3C4)nc2c1 (stereo unspecified)
> 100 µM

# lookup: EC50 of Clc1cc2ncn(C3CCCO3)c2cc1Cl (stereo unspecified)
> 100 µM

# lookup: EC50 of O=C1c2ccccc2-n2c(nc3cccnc32)CN1C[C@@H]1CCCN2CCCC[C@H]12
17 µM

# lookup: EC50 of c1ccc2[nH]c(C[C@H]3CCCN4CCCC[C@H]34)nc2c1
> 100 µM

# lookup: EC50 of Clc1cc2nc(Cc3ccc(Br)cc3)[nH]c2cc1Cl
> 100 µM

* * *

test system: Bovine viral diarrhea virus 1; experiment: Antiviral activity against Bovine viral diarrhea virus infected in MDBK cells assessed as inhibition of virus-induced cytopathogenicity after 3 to 4 days by MTT assay; type: functional, organism-based; settings: Bovine viral diarrhea virus isolates and strains
property.measured: EC50

# lookup: EC50 of Oc1ccc(-c2nc3cc(C(F)(F)F)ccc3n2C[C@@H]2CCCN3CCCC[C@H]23)cc1
> 100 µM

# lookup: EC50 of c1ccc(-c2nc3ccccc3n2[C@H]2CCCN3CCCC[C@H]23)cc1
> 100 µM

# lookup: EC50 of c1ccc2[nH]c(C[C@@H]3CCCN4CCCC[C@H]34)nc2c1
34 µM

# lookup: EC50 of Clc1cc2nc(Cc3ccc(Br)cc3)n(C[C@@H]3CCCN4CCCC[C@H]34)c2cc1Cl
> 100 µM

# lookup: EC50 of FC(F)(F)c1ccc2c(c1)nc(Cc1ccc(Br)cc1)n2C[C@@H]1CCCN2CCCC[C@H]12
> 100 µM

# lookup: EC50 of COc1ccc(-c2nc3cc(Cl)ccc3n2[C@H]2CCCN3CCCC[C@H]23)cc1
36 µM

# lookup: EC50 of Clc1ccc2[nH]c(C[C@@H]3CCCN4CCCC[C@H]34)nc2c1
17 µM

# lookup: EC50 of Clc1ccc2nc(-c3ccccc3)n([C@@H]3CCCN4CCCC[C@H]34)c2c1
40 µM

# lookup: EC50 of Clc1ccc(Cc2nc3cc(Cl)c(Cl)cc3[nH]2)cc1Cl
> 100 µM

# lookup: EC50 of COc1ccc(Cc2nc3cc(Cl)c(Cl)cc3[nH]2)cc1
> 100 µM

* * *

test: Cytotoxicity against mock-infected MDBK cells after 48 to 96 hrs by MTT assay; assay type: cell-based, Bos taurus; conditions: cattle
property.measured: CC50 (µM)
Report the figure in µM without appending any unit label.

# lookup: CC50 of FC(F)(F)c1ccc2[nH]c(Cc3ccc(Cl)cc3)nc2c1
16

# lookup: CC50 of c1ccc(Cn2c(-c3ccccc3)nc3ccccc32)cc1
54

# lookup: CC50 of c1ccc2c(c1)Cn1c(nc3ccccc31)-c1ccccc1-2
23

# lookup: CC50 of FC(F)(F)c1ccc2c(c1)nc(Cc1ccccc1)n2C[C@H]1CCCN2CCCC[C@H]12
28

# lookup: CC50 of COc1ccc(Cc2nc3cc(C(F)(F)F)ccc3[nH]2)cc1
56

# lookup: CC50 of c1ccc(-n2c(C[C@H]3CCCN4CCCC[C@H]34)nc3ccccc32)cc1
90

# lookup: CC50 of Clc1ccc(Cc2nc3cc(Cl)c(Cl)cc3[nH]2)cc1
9

# lookup: CC50 of COc1ccc(Cc2nc3cc(Cl)c(Cl)cc3[nH]2)cc1
17

# lookup: CC50 of Clc1ccc2[nH]c(C[C@@H]3CCCN4CCCC[C@H]34)nc2c1
77

# lookup: CC50 of Clc1ccc(Cc2nc3cc(Cl)c(Cl)cc3n2C[C@@H]2CCCN3CCCC[C@H]23)cc1Cl
46

# lookup: CC50 of Nc1ccc(Cc2nc3cc(Cl)c(Cl)cc3[nH]2)cc1
62

# lookup: CC50 of FC(F)(F)c1ccc2c(c1)nc(-c1ccccc1)n2C[C@@H]1CCCN2CCCC[C@H]12
35

# lookup: CC50 of Clc1cc2nc(Cc3ccc(Br)cc3)n(C[C@@H]3CCCN4CCCC[C@H]34)c2cc1Cl
58

# lookup: CC50 of Clc1cc2nc(Cc3ccc(Br)cc3)[nH]c2cc1Cl
10

# lookup: CC50 of COc1ccc(-c2nc3cc(C(F)(F)F)ccc3n2C[C@H]2CCCN3CCCC[C@H]23)cc1
57

# lookup: CC50 of Fc1cccc(F)c1-c1nc2cc(C(F)(F)F)ccc2n1C[C@@H]1CCCN2CCCC[C@H]12
36

# lookup: CC50 of FC(F)(F)c1ccc2c(c1)nc(Cc1ccc(Cl)cc1)n2C[C@@H]1CCCN2CCCC[C@H]12
54

# lookup: CC50 of FC(F)(F)c1ccc2c(c1)nc(CC1CCCC1)n2C[C@@H]1CCCN2CCCC[C@H]12
35
